system: PC-3 prostate; test: NCI tumour cell line growth inhibition, 48 h

[
  {
    "compound": "COC(=O)[C@H](Cc1cn(C)cn1)NC(=O)[C@H](C)NC(=O)Nc1cc(C(F)(F)F)cc(C(F)(F)F)c1",
    "operatorSymbol": ">",
    "TGI, µM": 10
  },
  {
    "compound": "O=C(O)[C@H](CCC[C@H]1C(=O)O[C@H](c2ccccc2)[C@H](c2ccccc2)N1C(=O)OCc1ccccc1)N[C@@H](c1ccccc1)[C@H](O)c1ccccc1",
    "operatorSymbol": ">",
    "TGI, µM": 100
  },
  {
    "compound": "CCCCOC1OC(COC(=O)C(C)C)C(OC(=O)C(C)C)C(O)C1OC1OC(C)C(OC(=O)CCC)C(OC(=O)C(C)C)C1O (configuration not stated)",
    "operatorSymbol": "=",
    "TGI, µM": 20.7
  },
  {
    "compound": "COC1CC(N)C(O)C(C)O1 (configuration not stated)",
    "operatorSymbol": ">",
    "TGI, µM": 100
  },
  {
    "compound": "CC(=O)Nc1n[n+]([O-])c2cc(C)ccc2[n+]1[O-]",
    "operatorSymbol": "=",
    "TGI, µM": 14.8
  },
  {
    "compound": "COCCOCCOCc1n(Cc2ccc3ccccc3n2)c2ccccc2[n+]1Cc1ccc2ccccc2n1",
    "operatorSymbol": "=",
    "TGI, µM": 11.7
  },
  {
    "compound": "O=C(Cn1c(C(=O)c2ccccc2)nc2ccccc21)c1ccccc1",
    "operatorSymbol": ">",
    "TGI, µM": 100
  },
  {
    "compound": "[N-]=[N+]=CC(=O)OCCCCl",
    "operatorSymbol": ">",
    "TGI, µM": 100
  },
  {
    "compound": "CN(C)c1cccc(F)c1C(=O)NC(=O)Nc1ccc(Cl)cc1",
    "operatorSymbol": ">",
    "TGI, µM": 100
  },
  {
    "compound": "CN(CCC(=O)/C(=C\\c1ccccc1)c1ccc(Cl)cc1)Cc1ccccc1",
    "operatorSymbol": "=",
    "TGI, µM": 9.49
  },
  {
    "compound": "CC(C)=CC(=O)c1[nH]c2ccccc2c1CC(=O)NCCc1cncn1C",
    "operatorSymbol": ">",
    "TGI, µM": 100
  },
  {
    "compound": "CCOC(=O)c1c(SC(=O)c2ccc(OC)cc2)n(-c2ccccc2)c(=S)n(-c2ccccc2)c1=O",
    "operatorSymbol": ">",
    "TGI, µM": 100
  },
  {
    "compound": "O=[N+]([O-])c1cc2no[n+]([O-])c2cc1N1CCCCC1",
    "operatorSymbol": "=",
    "TGI, µM": 5.68
  },
  {
    "compound": "O=Cc1ccc(-c2ccc(-c3nc4ccccc4s3)cc2)s1",
    "operatorSymbol": ">",
    "TGI, µM": 100
  },
  {
    "compound": "Cc1nc2cc(Nc3nc(Nc4ccc(F)cc4)nc(N4CCOCC4)n3)ccc2n1Cc1ccccc1",
    "operatorSymbol": "=",
    "TGI, µM": 16.8
  },
  {
    "compound": "O=c1[nH]c(NCc2ccc(Cl)cc2)nc2nc[nH]c12",
    "operatorSymbol": ">",
    "TGI, µM": 100
  },
  {
    "compound": "NC1(Cc2ccc(Cl)cc2)CCN(c2ncnc3[nH]ccc23)CC1",
    "operatorSymbol": "=",
    "TGI, µM": 23.5
  }
]
